molecular target: AMPK; test: AMPK activation, enzyme-linked immunosorbent assay; details: EC50 for AMPK activation, ELISA
pEC50: −log10 of the molar value.

>  <Molecule>
CS(=O)(=O)c1ccc(OC2CCN(C(=O)c3ccc(C(=O)NC4CCN(Cc5ccc(C#N)cc5)CC4)cn3)CC2)cc1 [Compound 397]

>  <pEC50>
> 6.30

$$$$
>  <Molecule>
N#Cc1ccc(OC2CCN(C(=O)c3ccc(C(=O)NC4CCN(Cc5ccc(N6CCOCC6)cc5)CC4)cn3)CC2)cc1 [Compound 337]

>  <pEC50>
> 6.30

$$$$
>  <Molecule>
CS(=O)(=O)c1ccc(C(=O)C2CCN(C(=O)c3ccc(C(=O)NC4CCN(Cc5ccc(F)cc5)CC4)cn3)CC2)cc1 [Compound 222]

>  <pEC50>
5.30 to 6.00

$$$$
>  <Molecule>
COc1ccc(C(=O)C2CCN(C(=O)c3ccc(C(=O)N[C@H]4CCN(Cc5ccc(C#N)cc5)C[C@H]4F)cn3)CC2)cc1 (relative stereo) [Compound 454]

>  <pEC50>
> 6.30

$$$$
>  <Molecule>
N#Cc1ccc(OC2CCN(c3ccc(C(=O)N4CCN(Cc5ccc(F)cc5)CC4)cn3)CC2)cc1 [Compound 188]

>  <pEC50>
6.00 to 6.30

$$$$
>  <Molecule>
O=C(Nc1ccc(Oc2ccc(F)cc2)nc1)c1ccc(C(=O)N2CCC(C(=O)c3ccc(N4CCCC4)cc3)CC2)nc1 [Compound 382]

>  <pEC50>
> 6.30

$$$$

* * *

A collection of molecules and their measured EC50
Target: AMPK
Assay: AMPK activation, enzyme-linked immunosorbent assay
Conditions: EC50 for AMPK activation, ELISA
Procedure: Compounds were assayed for their ability to activate AMPK using an enzyme-linked immunosorbent assay. Reagents and procedures for measuring AMPK activation are well known and kits for AMPK activation assays are commercially available.

>  <Molecule>
O=C(NC1CCN(Cc2ccccc2)CC1)c1ccc(C(=O)NC2CCN(Cc3ccccc3)CC2)nc1

>  <EC50>
5000 to 10000 nM

$$$$
>  <Molecule>
COc1ccc(C(=O)C2CCN(C(=O)c3ccc(C(=O)NC4CCN(Cc5ccc(F)cc5)CC4)nc3)CC2)cc1

>  <EC50>
< 500 nM

$$$$
>  <Molecule>
O=C(c1ccc(Nc2ccc(-c3ccccc3)cc2)nc1)N1CCN(Cc2ccc(F)cc2)CC1

>  <EC50>
5000 to 10000 nM

$$$$
>  <Molecule>
N#Cc1ccc(CN2CCC(NC(=O)c3ccc(C(=O)N4CCC(C(=O)c5ccc(N=[N+]=[N-])cc5)CC4)nc3)CC2)cc1

>  <EC50>
< 500 nM

$$$$
>  <Molecule>
N#Cc1ccc(CN2CCC(NC(=O)c3ccc(C(=O)N4CCC(Oc5ccc(S(=O)(=O)C(F)(F)F)cc5)CC4)cn3)CC2)cc1

>  <EC50>
< 500 nM

$$$$
>  <Molecule>
COc1ccc(C(=O)C2CCN(C(=O)c3ccc(C(=O)N[C@@H]4CCN(Cc5ccc(C#N)cc5)C[C@H]4F)cn3)CC2)cc1 (relative stereo) [Compound 349]

>  <EC50>
< 500 nM

$$$$
>  <Molecule>
CC(=O)c1ccc(Oc2ccc(NC(=O)c3ccc(C(=O)N4CCC(Oc5ccc(S(=O)(=O)C6CC6)cc5)CC4)nc3)cn2)cc1

>  <EC50>
< 500 nM

$$$$
